Target: Caspase-5 (Homo sapiens, UniProt P51878)
Construct: mixing the compounds with the respective active caspases; purchased BioVision K155-100
Sequence (P51878 137-327 limits assumed): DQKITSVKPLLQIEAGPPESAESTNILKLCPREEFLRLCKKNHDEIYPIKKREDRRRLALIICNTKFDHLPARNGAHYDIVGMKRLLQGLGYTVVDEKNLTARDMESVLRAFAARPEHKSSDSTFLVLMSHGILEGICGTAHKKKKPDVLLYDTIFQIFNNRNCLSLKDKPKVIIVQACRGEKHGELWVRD
Sequence (P51878 347-434 limits assumed): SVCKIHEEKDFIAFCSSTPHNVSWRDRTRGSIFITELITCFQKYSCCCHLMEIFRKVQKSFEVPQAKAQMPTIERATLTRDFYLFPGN
Assay: Caspase-5 inhibitor screening assay (BioVision kit, WEHD-AFC)
Format: biochemical
Details: read-out: IC50 Casp5
pIC50: −log10 of the molar value. Structures can show the parent of a compound that is named as a salt.
Answer class 0 if pIC50 is under 5, and class 1 if it is 5 or more.

Is it the case that CC(C)[C@H](NC(=O)[C@H](CCC(=O)O)NC(=O)[C@H](Cc1c[nH]c2ccccc12)NC(=O)OCc1ccccc1)C(=O)N[C@H](/C=C/S(C)(=O)=O)CC(=O)O has pIC50 reaching or exceeding 5?
class 1

Decide: pIC50 of CCOC(=O)/C=C/[C@H](CC(=O)O)NC(=O)[C@H]1CCCN1C(=O)[C@@H](NC(=O)c1ccc2ccccc2n1)C(C)(C)C >= 5?
class 1

Assess whether reported pIC50 for CC(C)(C)OC(=O)CC[C@H](NC(=O)OC(C)(C)C)C(=O)N[C@H](/C=C/S(C)(=O)=O)CC(=O)OC(C)(C)C sits at 5 or higher.
class 0

Assess whether reported pIC50 for CS(=O)(=O)/C=C/[C@H](CC(=O)O)NC(=O)[C@H](CCC(=O)O)NC(=O)c1ccc2ccccc2n1 sits at 5 or higher.
class 0

Reported pIC50 reaches at least 5 for CC(C)[C@H](NC(=O)[C@@H](NC(=O)[C@H](CC(=O)O)NC(=O)OCc1ccccc1)c1ccccc1)C(=O)N[C@H](/C=C/S(C)(=O)=O)CCC(=O)O ?
class 0

Is reported pIC50 greater than or equal to 5 here: CC(C)(C)[C@@H](NC(=O)[C@H](CC(=O)O)NC(=O)OCc1ccccc1)C(=O)N1CC[C@@H]1C(=O)N[C@H](/C=C/S(C)(=O)=O)CC(=O)O
class 0

Could you please find out whether CCC(C)[C@H](NC(=O)[C@H](CCC(=O)O)NC(=O)[C@@H](NC(=O)OCc1ccccc1)C(C)C)C(=O)N[C@H](/C=C(\Cl)S(C)(=O)=O)CC(=O)O (stereo partly shown) has pIC50 that meets 5 or exceeds it?
class 1

In plain terms: is recorded pIC50 at least 5 for CC(C)[C@H](NC(=O)c1ccc2ccccc2n1)C(=O)N[C@H](/C=C/S(C)(=O)=O)CC(=O)O ?
class 0

Does pIC50 meet or surpass 5 for CC(C)(C)[C@H](NC(=O)c1ccc(N)c(Cl)c1)C(=O)N1CCCC1C(=O)N[C@H](/C=C/S(C)(=O)=O)CC(=O)O (stereo in doubt) ?
class 1

Is reported pIC50 greater than or equal to 5 here: CS(=O)(=O)/C=C/[C@H](CC(=O)O)NC(=O)[C@@H](N)CCC(=O)O
class 0

Check the entry CCOC(=O)/C=C/[C@H](CC(=O)O)NC(=O)[C@H]1CCCN1C(=O)[C@@H](NC(=O)c1ccc(N)c(Cl)c1)C(C)(C)C : does pIC50 equal or exceed 5?
class 1

Could you verify whether the entry CCOC(=O)/C=C/[C@@H](N)CC(=O)O [Compound 44, Asp ethyl vinyl ester tosyl salt] shows pIC50 of no less than 5?
class 0

Dear colleague, could you confirm whether CCOC(=O)/C=C/[C@H](CC(=O)O)NC(=O)[C@@H](NC(=O)[C@H](CCC(=O)O)NC(=O)[C@@H](NC(=O)OCc1ccccc1)C(C)C)C(C)CC (stereo partly shown) has pIC50 at or above 5?
class 1

Determine whether measured pIC50 meets or exceeds 5 for CS(=O)(=O)/C=C/[C@H](CC(=O)O)NC(=O)C1CCCN1C(=O)[C@@H](NC(=O)[C@H](CC(=O)O)NC(=O)OCc1ccccc1)C1CC1 (stereo in doubt)
class 0

Does CC(C)(C)[C@H](NC(=O)c1ccc2ncccc2n1)C(=O)N1CCCC1C(=O)N[C@H](/C=C/S(C)(=O)=O)CC(=O)O (stereo in doubt) have a reported pIC50 of at least 5?
class 1

Determine whether this compound has pIC50 no lower than 5: CC(C)(C)[C@H](NC(=O)c1ccc2ncccc2c1)C(=O)N1CCCC1C(=O)N[C@H](/C=C/S(C)(=O)=O)CC(=O)O (stereo in doubt)
class 1

Check the entry CS(=O)(=O)/C(Cl)=C/[C@@H](N)CC(=O)O : does pIC50 equal or exceed 5?
class 0

Identify whether the reported pIC50 of the following compound is 5 or greater: CC(C)[C@H](NC(=O)[C@H](Cc1cn(C)c2ccccc12)NC(=O)[C@H](CC(=O)O)NC(=O)OCc1ccccc1)C(=O)N[C@H](/C=C/S(C)(=O)=O)CC(=O)O
class 0

---

Hi there, I'd appreciate the recorded inhibition at 100 µM for every entry that follows.
Target: Caspase-9 (Homo sapiens)
Construct: purchased BioVision K159-100
Sequence (P55211 1-315 limits assumed): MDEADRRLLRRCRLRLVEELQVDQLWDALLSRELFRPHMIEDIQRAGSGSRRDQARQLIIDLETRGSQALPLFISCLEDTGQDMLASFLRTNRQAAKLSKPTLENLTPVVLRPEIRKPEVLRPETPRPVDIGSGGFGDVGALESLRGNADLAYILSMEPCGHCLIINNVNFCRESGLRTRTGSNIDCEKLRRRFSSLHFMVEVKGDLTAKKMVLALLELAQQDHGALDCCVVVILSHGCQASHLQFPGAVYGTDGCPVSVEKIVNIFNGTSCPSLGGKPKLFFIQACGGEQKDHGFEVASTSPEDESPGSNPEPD
Sequence (P55211 331-416 limits assumed): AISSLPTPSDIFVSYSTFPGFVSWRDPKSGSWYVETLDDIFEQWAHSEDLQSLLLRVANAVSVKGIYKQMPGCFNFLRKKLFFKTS
Assay: Caspase-9 inhibitor screening assay (BioVision kit, LEHD-AFC)
Assay type: biochemical
Details: 100 uM; read-out: % Inhibition at 100 uM Casp9
Please state the figure in %; there is no need to write the unit.

According to the records, this compound CS(=O)(=O)/C=C/[C@H](CC(=O)O)NC(=O)[C@H]1CCCN1C(=O)[C@@H](NC(=O)[C@H](CC(=O)O)NC(=O)OCc1ccccc1)c1ccccc1 [Compound 30] displays inhibition at 100 µM of 92

Input CC(C)(C)[C@H](NC(=O)c1ccc2ccccc2n1)C(=O)N1CC[C@@H]1C(=O)N[C@H](/C=C/S(C)(=O)=O)CC(=O)O [Compound 20] . Output inhibition at 100 µM: 44

Given item CC(C)[C@H](NC(=O)[C@@H](N)Cc1ccc(O)cc1)C(=O)N[C@@H](C)C(=O)N[C@H](/C=C/S(C)(=O)=O)CC(=O)O [Compound 42, Tyr-Val-Ala-Asp methyl vinyl sulfone] , the value recorded as its inhibition at 100 µM is 26

The compound listed as CC(C)[C@H](NC(=O)[C@H](CCC(=O)O)NC(=O)[C@H](Cc1c[nH]c2ccccc12)NC(=O)OCc1ccccc1)C(=O)N[C@H](/C=C/S(C)(=O)=O)CC(=O)O [Compound 40, Z-Trp-Glu-Val-Asp-methyl vinyl sulfone] shows inhibition at 100 µM equal to 99

For record CC(C)[C@H](NC(=O)[C@@H](NC(=O)[C@H](CC(=O)O)NC(=O)OCc1ccccc1)c1ccccc1)C(=O)N[C@H](/C=C/S(C)(=O)=O)CCC(=O)O [Compound 84, Z-Asp-Phg-Val-Glu methyl vinyl sulfone] the listed inhibition at 100 µM is 6

---

target: Caspase-1 (Homo sapiens, UniProt P29466); construct: mixing the compounds with the respective active caspases; purchased BioVision K151-100; test: Caspase-1 inhibitor screening assay (BioVision kit, YVAD-AFC); format: biochemical; settings: read-out: % Inhibition at 100 uM Casp1
Sequence (P29466 120-297 limits assumed): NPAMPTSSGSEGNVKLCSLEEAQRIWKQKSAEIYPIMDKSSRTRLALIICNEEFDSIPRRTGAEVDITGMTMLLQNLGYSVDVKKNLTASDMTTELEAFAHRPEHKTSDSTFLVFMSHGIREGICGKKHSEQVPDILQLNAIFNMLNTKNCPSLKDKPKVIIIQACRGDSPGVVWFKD
Sequence (P29466 317-404 limits assumed): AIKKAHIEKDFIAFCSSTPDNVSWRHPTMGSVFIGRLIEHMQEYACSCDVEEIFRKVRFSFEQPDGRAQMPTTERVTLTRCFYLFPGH
Could you please report measured inhibition at 100 µM for the items listed next?
Numeric answer only, unit % assumed.

Entry CC(C)(C)[C@H](NC(=O)[C@H](CC(=O)O)NC(=O)OCc1ccccc1)C(=O)N1CCCC1C(=O)N[C@H](/C=C/S(C)(=O)=O)CC(=O)O (stereo in doubt) , inhibition at 100 µM reported as 99

So for CS(=O)(=O)/C=C/[C@H](CC(=O)O)NC(=O)[C@@H](N)CCC(=O)O , the logged inhibition at 100 µM turned out to be 0

Looking up CC(C)(C)[C@H](NC(=O)c1ccc2ccccc2n1)C(=O)N1CC[C@@H]1C(=O)N[C@H](/C=C/S(C)(=O)=O)CC(=O)O , I see its inhibition at 100 µM listed as 99

Lab note: CC(C)(C)[C@H](NC(=O)c1ccc2ncccc2n1)C(=O)N1CCCC1C(=O)N[C@H](/C=C/S(C)(=O)=O)CC(=O)O (stereo in doubt) gave inhibition at 100 µM of 100

The reported inhibition at 100 µM of the compound CS(=O)(=O)/C=C/[C@H](CC(=O)O)NC(=O)[C@H]1CCCN1C(=O)[C@@H](NC(=O)[C@H](CC(=O)O)NC(=O)OCc1ccccc1)c1ccccc1 was 92
